molecular target: HLA A*2402 (Homo sapiens, UniProt P04439, D101N/D140Y/D185E/E176V/E190D/F33S/G103R/G107R/I119L/I121M/I306V/K335N/L105A/L180Q/L300P/N151K/N90K/Q86E/Q94H/R106L/R138H/R89G/T104I/T345S/V100E/W191G/Y123F); experiment: ITOPIA peptide binding assay; conditions: 1.11×10^−4M of peptide
Give level of binding, percent of positive control peptide binding for every item shown.

Solved cases (5 shown):
residueCodes | reading
RGRQKVVSI [compound 153] | 29% of positive control
ALFYKLDVV [compound 72] | 14% of positive control
RGRQKVVSL [compound 68] | 17% of positive control
YNEWTLELL [compound 22] | 35% of positive control
CSSNITGLL [compound 69] | 26% of positive control

Below are some sequences; for each one, tell me its level of binding, percent of positive control peptide binding.
1. KLAGRWPVT [compound 157]
2. VTLTEEAEL [compound 156]
3. CSSNITGLI [compound 154]

1. 8% of positive control
2. 11% of positive control
3. 29% of positive control

* * *

Give A*2402 t1/2 for every item shown.
Target: HLA A*2402 (Homo sapiens, UniProt P04439, D101N/D140Y/D185E/E176V/E190D/F33S/G103R/G107R/I119L/I121M/I306V/K335N/L105A/L180Q/L300P/N151K/N90K/Q86E/Q94H/R106L/R138H/R89G/T104I/T345S/V100E/W191G/Y123F)
Test: ITOPIA off-rate assay
Assay type: binding
Details: 37° C., one-phase exponential decay
Protocol: Peptide binding, off-rate and affinity were measured according to the protocols described in the ITOPIA Epitope Discovery System Customer Guide. […] Determinations were performed in duplicate using an ELISA plate reader. […] The off-rate assay used evaluates the dissociation of previously bound peptide at defined time points (expressed as the t1/2 value). […]
Give me the value, and tack the unit on after it.

Solved cases (2 shown):
residueCodes | A*2402 t1/2
ALFYKLDVI [compound 158] | 1.1 h
CSSNITGLI [compound 154] | 1.5 h

Below are some sequences; for each one, tell me its A*2402 t1/2.
1. RGRQKVVSI [compound 153]
2. CSSNITGLL [compound 69]
3. YNEWTLELL [compound 22]

1.8 h
1.1 h
1.5 h

* * *

target: HLA B*0801 (Homo sapiens, UniProt P01889, A93T/A95T/D138N/E176V/E187T/K202T/Q94N/R180D/S35A/V36M/Y33D/Y91F); construct: purchased; assay: ITOPIA peptide binding assay; details: 1.11×10^−4M of peptide
quantity: level of binding, percent of positive control peptide binding

substance | reading
155 (HNEWTLELL; HIV) [compound 155] | 3% of positive control
YNEWTLELL [compound 22] | 3% of positive control
RGRQKVVSL [compound 68] | 73% of positive control
KLAGRWPVT [compound 157] | 4% of positive control
70 (VPLTEEAEL; HIV) [compound 70] | 4% of positive control
RGRQKVVSI [compound 153] | 71% of positive control

Below are some substances; for each one, tell me its level of binding, percent of positive control peptide binding.
1. VTLTEEAEL [compound 156]
2. ALFYKLDVI [compound 158]
3. KLAGRWPVK [compound 71]
4. ALFYKLDVV [compound 72]
5. CSSNITGLL [compound 69]
6. FPRIWLHGL [compound 152]
7. CSSNITGLI [compound 154]

4% of positive control
5% of positive control
4% of positive control
3% of positive control
4% of positive control
39% of positive control
6% of positive control

* * *

Give level of binding, percent of positive control peptide binding for every item shown.
molecular target: HLA A*0301 (Homo sapiens); construct: purchased; assay: ITOPIA peptide binding assay; details: 1.11×10^−4M of peptide

substance | reading
KLAGRWPVK [compound 71] | 114% of positive control

Below are some substances; for each one, tell me its level of binding, percent of positive control peptide binding.
1. YNEWTLELL [compound 22]
2. FPRIWLHGL [compound 152]

["0% of positive control", "0% of positive control"]

Below are some substances; for each one, tell me its level of binding, percent of positive control peptide binding.
1. RGRQKVVSI [compound 153]
2. ALFYKLDVV [compound 72]
3. CSSNITGLL [compound 69]
4. 155 (HNEWTLELL; HIV) [compound 155]

1. 0% of positive control
2. 5% of positive control
3. 0% of positive control
4. 0% of positive control

* * *

target: HLA A*1101 (Homo sapiens, UniProt P04439, A114D/D185E/E176A/F33Y/L180Q/S129P/T187R); construct: purchased; test: ITOPIA peptide binding assay; conditions: 1.11×10^−4M of peptide
Give level of binding, percent of positive control peptide binding for every item shown.

Solved cases (5 shown):
substance | targetUnderTest | reading
ALFYKLDVI [compound 158] | HLA A*1101 (Homo sapiens, UniProt P04439, A114D/D185E/E176A/F33Y/L180Q/S129P/T187R) | 1% of positive control
RGRQKVVSL [compound 68] | HLA A*1101 (Homo sapiens, UniProt P04439, A114D/D185E/E176A/F33Y/L180Q/S129P/T187R) | 0% of positive control
YNEWTLELL [compound 22] | HLA A*1101 (Homo sapiens, UniProt P04439, A114D/D185E/E176A/F33Y/L180Q/S129P/T187R) | 1% of positive control
CSSNITGLI [compound 154] | HLA A*1101 (Homo sapiens, UniProt P04439, A114D/D185E/E176A/F33Y/L180Q/S129P/T187R) | 1% of positive control
FPRIWLHGL [compound 152] | HLA A*1101 (Homo sapiens, UniProt P04439, A114D/D185E/E176A/F33Y/L180Q/S129P/T187R) | 0% of positive control

Below are some substances; for each one, tell me its level of binding, percent of positive control peptide binding.
1. RGRQKVVSI [compound 153]
2. 155 (HNEWTLELL; HIV) [compound 155]
3. ALFYKLDVV [compound 72]

1. 6% of positive control
2. 1% of positive control
3. 1% of positive control

Below are some substances; for each one, tell me its level of binding, percent of positive control peptide binding.
1. 70 (VPLTEEAEL; HIV) [compound 70]
2. VTLTEEAEL [compound 156]
3. KLAGRWPVK [compound 71]
4. KLAGRWPVT [compound 157]
5. CSSNITGLL [compound 69]

1. 1% of positive control
2. 1% of positive control
3. 160% of positive control
4. 19% of positive control
5. 1% of positive control

* * *

target: HLA A*0201 (Homo sapiens, UniProt P04439, D140Y/D185E/D98H/E176V/E277Q/G131W/G231S/I119V/I121R/I166T/I218V/L300P/L318F/N151K/N90K/P208A/P217A/Q86G/Q94H/R138H/R169H/T345S); experiment: ITOPIA off-rate assay; assay type: binding; settings: 37° C., one-phase exponential decay
quantity: A*0201 t1/2 (h)
Give bare numbers, in h.

Solved cases (5 shown):
residueCodes | A*0201 t1/2 (h)
VTLTEEAEL [compound 156] | 1.2
KLAGRWPVK [compound 71] | 1.3
KLAGRWPVT [compound 157] | 1.1
CSSNITGLL [compound 69] | 0.3
ALFYKLDVV [compound 72] | 4.0

Below are some sequences; for each one, tell me its A*0201 t1/2.
1. ALFYKLDVI [compound 158]
2. CSSNITGLI [compound 154]

1: 5.5; 2: 0.4

* * *

Molecular target: HLA B*1501 (Homo sapiens, UniProt P01889, A329T/A93T/A95T/C349S/D201E/D98Y/E187L/E204Q/E69M/E70A/K202T/N87E/Q94N/R155S/R180W/S121R/S35A/S48A/V306I/V36M/Y140S/Y91S)
Construct: purchased
Assay: Multi-parametric analysis iScore
Format: binding
Set-up: scale not given here
Settings: index integrating t1/2 and ED50
Method: Multi-parametric analysis was performed to integrate the half-life (t½) and ED50 parameters in an index (iScore). The iScore (Table 13) reflects the capability of a peptide to reconstitute with MHC molecules in a stable complex, defining its overall level of binding.
Give iScore for every item shown.
Give bare numbers.

substance | iScore
CSSNITGLL [compound 69] | 0.067
ALFYKLDVI [compound 158] | 0

Below are some substances; for each one, tell me its iScore.
1. RGRQKVVSL [compound 68]
2. FPRIWLHGL [compound 152]
3. KLAGRWPVK [compound 71]
4. VTLTEEAEL [compound 156]
5. RGRQKVVSI [compound 153]
6. KLAGRWPVT [compound 157]

[0.106, 0, 0, 0, 0, 0]

Data provenance: patent US20060160070A1
